- TARGET OR TEST SYSTEM: T1, human GIP receptor (human, UniProt P48546 22-466)
- T1 sequence (looked up): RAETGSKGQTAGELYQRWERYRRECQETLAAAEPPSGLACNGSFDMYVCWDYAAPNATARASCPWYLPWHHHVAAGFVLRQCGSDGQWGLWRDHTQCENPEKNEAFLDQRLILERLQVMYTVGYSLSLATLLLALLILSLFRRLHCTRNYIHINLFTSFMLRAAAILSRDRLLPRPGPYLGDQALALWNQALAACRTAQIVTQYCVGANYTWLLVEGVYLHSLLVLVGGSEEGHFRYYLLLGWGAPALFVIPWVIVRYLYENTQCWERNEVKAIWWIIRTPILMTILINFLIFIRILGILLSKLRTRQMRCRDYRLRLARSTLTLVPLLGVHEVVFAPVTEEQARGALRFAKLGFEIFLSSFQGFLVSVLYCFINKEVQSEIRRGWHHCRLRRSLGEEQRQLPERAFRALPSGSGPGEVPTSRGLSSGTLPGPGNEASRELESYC
- PROCEDURE DETAILS: cell-based or functional assay
Starred links: 1 amine or outer side, 2 acyl side, 3 side chain; linkers in the order of their positions; H or OH if unused. Non-standard residues stand in square brackets, D forms with d. Groups on a side chain read outwards from the residue. No end group written: not given here. *: point of attachment. C20 diacid = O=C(O)CCCCCCCCCCCCCCCCCCC(=O)*; C18 diacid = O=C(O)CCCCCCCCCCCCCCCCC(=O)*; γGlu = O=C(O)[C@H](CCC(=O)[*:2])N[*:1]; εLys = N[C@@H](CCCCN[*:1])C(=O)[*:2]; AEEA = NCCOCCOCC(=O)O; Aib = CC(C)(N)C(=O)O
Mark label 1 for EC50 CreLuc hGIPR 100% hP under 2 nM, label 0 if at or over.

Query: Identify whether the binder Y[Aib]EGTFTSDYSI[Aib]LEEQAQ[Aib]AFVEWLIKGGPSSGASLRHYYNWLTRQRY-NH2 (not fully specified (residue 28)) [Compound 105] records EC50 CreLuc hGIPR 100% hP below 2 nM.
Result: label 1

Next:
Query: Record YXEGTFTSDYSIXLEKQAQXAFVEWLIKGGPSEGQSIRHYYNWLTRQRY (Aib at 2, 13, 20; K28 side chain: C20DA-gGlu-gGlu-gGlu-gGlu-gGlu-gGlu-eLys; C-terminal NH2) [Compound 134] : is its EC50 CreLuc hGIPR 100% hP strictly below 2 nM?
Result: label 1

Query: Report whether reported EC50 CreLuc hGIPR 100% hP is lower than 2 nM (strictly) for Y[Aib]EGTFTSDYSI[Aib]LEKQAQ[Aib]EFVEWLIK([εLys-γGlu-γGlu-γGlu-γGlu-γGlu-γGlu-γGlu-C20 diacid])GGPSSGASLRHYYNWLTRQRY-NH2 [Compound 88]
Result: label 1

Query: Dear reviewer, please state whether YXEGTFTSDYSIXLEKQAQXAFVEWLIKGGPSSGASLXHYYNWLTRQRY (Aib at 2, 13, 20, 38; K28 side chain: C20DA-gGlu-gGlu-gGlu-gGlu-gGlu-gGlu-eLys; C-terminal NH2) [Compound 129] has EC50 CreLuc hGIPR 100% hP strictly beneath 2 nM.
Result: label 1

Query: For YXEGTFTSDYSIXLEKQAQXAFVEWLIKGGPSSGISLRHYYNWLTRQRY (Aib at 2, 13, 20; K28 side chain: C20DA-gGlu-gGlu-gGlu-gGlu-gGlu-gGlu-eLys; C-terminal NH2) [Compound 94] , is the recorded EC50 CreLuc hGIPR 100% hP below the cut-off of 2 nM?
Result: label 1

Query: Would you kindly verify if EC50 CreLuc hGIPR 100% hP of Y[Aib]EGTFTSDYSI[Aib]LEKQAQ[Aib]EFVQWLIK([AEEA-AEEA-Glu-Glu-Glu-C18 diacid])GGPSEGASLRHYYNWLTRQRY-NH2 [Compound 157] is strictly less than 2 nM?
Result: label 1
